System: passive cutaneous anaphylactic (PCA) reaction
Assay: Passive cutaneous anaphylactic (PCA) reaction, reagin-allergen combination, in rats
Format: in vivo
Details: Rattus norvegicus, intravenous, just before injection of allergen, read-out: ED100 (intravenous dose which produces 100% inhibition of the PCA reaction)
PARAMETER_MEASURED: ED100 (mg/kg)
Your answer should be a plain number; it is taken to be in mg/kg.

Known results for compounds:
CC(C)N(C)S(=O)(=O)c1ccc(O)c(C(=O)Nc2nnn[nH]2)c1 | 5
Cc1ccc(O)c(C(=O)Nc2nnn[nH]2)c1 | 1
O=C(Nc1nnn[nH]1)c1cc(F)ccc1O | 1

Prompt line: Recorded ED100 of `CCC(=O)c1cc(C)cc(C(=O)Nc2nnn[nH]2)c1O` , please.
Response line: 0.05

Prompt line: Recorded ED100 of `CC(=O)c1cc(Br)cc(C(=O)Nc2nnn[nH]2)c1O` , please.
Response line: 2

Prompt line: Recorded ED100 of `O=C(Nc1nnn[nH]1)c1cc(C(F)(F)F)ccc1O` , please.
Response line: 2

Prompt line: Recorded ED100 of `CC(=O)c1c(C)c(C)cc(C(=O)Nc2nnn[nH]2)c1O` , please.
Response line: 20

Prompt line: Recorded ED100 of `CCCOc1cccc(C(=O)Nc2nnn[nH]2)c1O` , please.
Response line: 0.5

Prompt line: Recorded ED100 of `CC(=O)c1cc(C(=O)Nc2nnn[nH]2)c(O)c(C(C)=O)c1O` , please.
Response line: 5

Prompt line: Recorded ED100 of `O=C(Nc1nnn[nH]1)c1cc(Cl)ccc1O` , please.
Response line: 1

Prompt line: Recorded ED100 of `CC(=O)c1ccc(O)c(C(=O)Nc2nnn[nH]2)c1` , please.
Response line: 10

Prompt line: Recorded ED100 of `CN(C)S(=O)(=O)c1ccc(O)c(C(=O)Nc2nnn[nH]2)c1` , please.
Response line: 2

Prompt line: Recorded ED100 of `CC(=O)c1cc(S(N)(=O)=O)cc(C(=O)Nc2nnn[nH]2)c1O` , please.
Response line: 0.5

* * *

Experiment: Acute oral toxicity in mice
Conditions: mouse, in vivo, highest dose used 1000 mg/kg, read-out: LD50 (doses lethal to 50% of mice tested)
LD50 by entry:

CC(=O)c1cc(C(=O)Nc2nnn[nH]2)c(O)c([N+](=O)[O-])c1 | > 1000 mg/kg
Cc1cc(C(=O)Nc2nnn[nH]2)c(O)c(S(=O)(=O)NC(C)(C)C)c1 | > 1000 mg/kg
CC(=O)c1cc(C)cc(C(=O)Nc2nnn[nH]2)c1O | > 1000 mg/kg
COc1cccc(C(=O)Nc2nnn[nH]2)c1O | > 1000 mg/kg
CC(=O)c1cccc(C(=O)Nc2nnn[nH]2)c1O | > 1000 mg/kg
O=C(Nc1nnn[nH]1)c1cc([N+](=O)[O-])ccc1O | > 1000 mg/kg
CCC(=O)c1cc(C)cc(C(=O)Nc2nnn[nH]2)c1O | > 1000 mg/kg

Turning now to a further compound:
Prompt line: Recorded LD50 of `O=C(Nc1nnn[nH]1)c1ccc(Cl)cc1O` , please.
Response line: > 1000 mg/kg

* * *

LD50 by entry:
Assay: Acute intravenous toxicity in mice
Conditions: mouse, in vivo, sodium salt (Na), 2% w/v test solution
Your answer should be a plain number; it is taken to be in mg/kg.

Known results for molecules:
CCCCN(CCCC)S(=O)(=O)c1ccc(O)c(C(=O)Nc2nnn[nH]2)c1 [AQ] | 280
Cc1ccc(O)c(C(=O)Nc2nnn[nH]2)c1 [AG] | 670
CCc1cc(C(C)=O)c(O)c(C(=O)Nc2nnn[nH]2)c1 [BW] | 320
COc1ccc(O)c(C(=O)Nc2nnn[nH]2)c1 [AP] | 950
Cc1cc(C(=O)Nc2nnn[nH]2)c(O)c(S(=O)(=O)NC(C)(C)C)c1 [BT] | 500

Turning now to a further molecule:
Prompt line: Recorded LD50 of O=C(Nc1nnn[nH]1)c1cc(Cl)ccc1O [Compound AD] , please.
Response line: 480

* * *

Tested on: passive cutaneous anaphylactic (PCA) reaction
Experiment: Passive cutaneous anaphylactic (PCA) reaction, reagin-allergen combination, in rats
Format: in vivo
Details: Rattus norvegicus, oral dose of 100 mg/kg, thirty minutes before intravenous allergen
inhibition in vivo at 100 mg/kg by entry:
Your answer should be a plain number; it is taken to be in %.

COc1cccc(C(=O)Nc2nnn[nH]2)c1O [Compound BE] | 62

Prompt line: Recorded inhibition in vivo at 100 mg/kg of O=C(Nc1nnn[nH]1)c1cc([N+](=O)[O-])ccc1O [AO] , please.
Response line: 48

Prompt line: Recorded inhibition in vivo at 100 mg/kg of Cc1cc(C(=O)Nc2nnn[nH]2)c(O)c(C(=O)c2ccccc2)c1 [CR] , please.
Response line: 22

Prompt line: Recorded inhibition in vivo at 100 mg/kg of CC(=O)c1cc(Cl)cc(C(=O)Nc2nnn[nH]2)c1O [Compound AU] , please.
Response line: 71

Prompt line: Recorded inhibition in vivo at 100 mg/kg of COc1ccc(O)c(C(=O)Nc2nnn[nH]2)c1 [AP] , please.
Response line: 75

Prompt line: Recorded inhibition in vivo at 100 mg/kg of CC(C)(C)NC(=O)c1cccc(C(=O)Nc2nnn[nH]2)c1O [CO] , please.
Response line: 26

* * *

Assay: Acute intravenous toxicity in mice
Conditions: mouse, in vivo, triethanolamine salt (T), 2% w/v test solution
PARAMETER_MEASURED: LD50 (mg/kg)
Your answer should be a plain number; it is taken to be in mg/kg.

Known results for compounds:
O=C(Nc1nnn[nH]1)c1cc([N+](=O)[O-])ccc1O | 870
O=C(Nc1nnn[nH]1)c1cc([N+](=O)[O-])cc([N+](=O)[O-])c1O | 490
CCC(=O)c1cc(CC)cc(C(=O)Nc2nnn[nH]2)c1O | 280

Turning now to a further compound:
Prompt line: Recorded LD50 of `CC(=O)c1cc(C(=O)Nc2nnn[nH]2)c(O)c([N+](=O)[O-])c1` , please.
Response line: 890

* * *

Assay: Acute oral toxicity in mice
Settings: mouse, in vivo, highest dose used 1000 mg/kg, read-out: LD50 (doses lethal to 50% of mice tested)
Excerpt: Mice were each treated orally with one of the compounds of formula I, and they were observed daily until there had been at least 3 consecutive days without any deaths. The LD50 figures obtained (doses lethal to 50% of mice tested) are shown below in Table IV, expressed in mg/kg animal body weight. The symbol ">" means "greater than" in this specification. […]
PARAMETER_MEASURED: LD50

Prompt line: Recorded LD50 of `CCOc1cccc(C(=O)Nc2nnn[nH]2)c1O` , please.
Response line: > 1000 mg/kg

Prompt line: Recorded LD50 of `Cc1cccc(C(=O)Nc2nnn[nH]2)c1O` , please.
Response line: > 1000 mg/kg

Prompt line: Recorded LD50 of `CCCCN(CCCC)S(=O)(=O)c1ccc(O)c(C(=O)Nc2nnn[nH]2)c1` , please.
Response line: > 1000 mg/kg

Prompt line: Recorded LD50 of `O=C(Nc1nnn[nH]1)c1cccc(Br)c1O` , please.
Response line: 794 mg/kg

Prompt line: Recorded LD50 of `CCCC(=O)c1cc(CC)cc(C(=O)Nc2nnn[nH]2)c1O` , please.
Response line: > 1000 mg/kg

Prompt line: Recorded LD50 of `Cc1cc(C(=O)Nc2nnn[nH]2)c(O)c(C(=O)c2ccccc2)c1` , please.
Response line: > 1000 mg/kg

* * *

inhibition in vivo at 100 mg/kg by entry:
Tested on: passive cutaneous anaphylactic (PCA) reaction
Experiment: Passive cutaneous anaphylactic (PCA) reaction, reagin-allergen combination, in rats
Type: in vivo
Details: Rattus norvegicus, oral dose of 100 mg/kg, thirty minutes before intravenous allergen
Your answer should be a plain number; it is taken to be in %.

Cc1cc(C(=O)Nc2nnn[nH]2)c(O)c(-c2nnn[nH]2)c1 | 64

Turning now to a further compound:
Prompt line: Recorded inhibition in vivo at 100 mg/kg of `CC(=O)c1cc(C(C)(C)C)cc(C(=O)Nc2nnn[nH]2)c1O` , please.
Response line: 59

* * *

Tested on: passive cutaneous anaphylactic (PCA) reaction
Test: Passive cutaneous anaphylactic (PCA) reaction, reagin-allergen combination, in rats
Type: in vivo
Details: Rattus norvegicus, intravenous, just before injection of allergen, read-out: ED100 (intravenous dose which produces 100% inhibition of the PCA reaction)
Classification field: MET = ED100 at or over 0.5 mg/kg; NOT MET = ED100 under 0.5 mg/kg.

The following molecules have reported results that may help.
CC(=O)c1cc(C(=O)Nc2nnn[nH]2)c(O)c([N+](=O)[O-])c1 | NOT MET
O=C(Nc1ccc(O)c(C(=O)Nc2nnn[nH]2)c1)OCc1ccccc1 | MET
CC(=O)c1cc(C)cc(C(=O)Nc2nnn[nH]2)c1O | NOT MET
CC(=O)c1cc(F)cc(C(=O)Nc2nnn[nH]2)c1O | NOT MET
CCOc1cccc(C(=O)Nc2nnn[nH]2)c1O | MET
CS(=O)(=O)c1ccc(O)c(C(=O)Nc2nnn[nH]2)c1 | MET
CC(=O)c1cc([N+](=O)[O-])cc(C(=O)Nc2nnn[nH]2)c1O | NOT MET
CCCc1cc(C(C)=O)c(O)c(C(=O)Nc2nnn[nH]2)c1 | NOT MET

Prompt line: // inclusive: ED100 at least 0.5 mg/kg? input: `O=C(Nc1nnn[nH]1)c1ccc([N+](=O)[O-])cc1O`
Response line: MET

Prompt line: // inclusive: ED100 at least 0.5 mg/kg? input: `Cc1cc(C=O)c(O)c(C(=O)Nc2nnn[nH]2)c1`
Response line: MET

Prompt line: // inclusive: ED100 at least 0.5 mg/kg? input: `CN(C)c1cccc(C(=O)Nc2nnn[nH]2)c1O`
Response line: MET

Prompt line: // inclusive: ED100 at least 0.5 mg/kg? input: `COc1ccc(C(=O)Nc2nnn[nH]2)c(O)c1`
Response line: MET

Prompt line: // inclusive: ED100 at least 0.5 mg/kg? input: `Cc1cc(C(=O)Nc2nnn[nH]2)c(O)c(C(=O)c2ccccc2)c1`
Response line: MET

# credit: patent US4146631A
